molecular target: Jak3 phosphorylation in NK-92 cells (Homo sapiens, UniProt P52333); construct: endogenous in cells; assay: Western blotting assay for Jak3; details: 1 hour, IL-2 stimulation, read-out: Jak3 inhibition
Sequence (P52333 whole entry): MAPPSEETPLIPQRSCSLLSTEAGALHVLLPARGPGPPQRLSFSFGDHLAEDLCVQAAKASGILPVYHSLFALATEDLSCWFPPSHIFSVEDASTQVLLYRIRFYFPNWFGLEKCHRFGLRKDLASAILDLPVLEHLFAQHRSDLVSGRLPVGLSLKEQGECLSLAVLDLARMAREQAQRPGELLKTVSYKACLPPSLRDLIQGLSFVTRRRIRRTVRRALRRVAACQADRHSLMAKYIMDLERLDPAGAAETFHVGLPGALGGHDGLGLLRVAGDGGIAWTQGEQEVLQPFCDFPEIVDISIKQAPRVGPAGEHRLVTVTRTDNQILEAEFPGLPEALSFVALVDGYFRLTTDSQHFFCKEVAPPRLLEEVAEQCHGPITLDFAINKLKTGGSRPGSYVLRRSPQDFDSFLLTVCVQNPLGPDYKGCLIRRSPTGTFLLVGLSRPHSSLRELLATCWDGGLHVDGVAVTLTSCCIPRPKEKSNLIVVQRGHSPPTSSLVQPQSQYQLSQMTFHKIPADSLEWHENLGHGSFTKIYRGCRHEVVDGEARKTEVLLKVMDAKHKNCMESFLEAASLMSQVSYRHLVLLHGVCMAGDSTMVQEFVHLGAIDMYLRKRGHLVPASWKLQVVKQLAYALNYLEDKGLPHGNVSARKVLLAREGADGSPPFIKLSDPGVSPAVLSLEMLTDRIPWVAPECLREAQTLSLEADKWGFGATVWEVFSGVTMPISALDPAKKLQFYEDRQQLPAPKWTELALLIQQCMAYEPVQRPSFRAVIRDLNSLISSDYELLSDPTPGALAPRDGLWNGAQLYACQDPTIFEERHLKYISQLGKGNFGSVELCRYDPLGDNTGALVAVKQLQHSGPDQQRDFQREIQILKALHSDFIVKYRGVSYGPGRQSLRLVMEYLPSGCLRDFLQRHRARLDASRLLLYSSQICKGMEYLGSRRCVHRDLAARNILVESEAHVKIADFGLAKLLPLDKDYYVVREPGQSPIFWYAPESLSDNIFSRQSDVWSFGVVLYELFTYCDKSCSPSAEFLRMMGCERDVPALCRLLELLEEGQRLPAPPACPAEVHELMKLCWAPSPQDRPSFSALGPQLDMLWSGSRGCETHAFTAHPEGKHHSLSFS

# compound, IC50
rows = [
    ("C=CC(=O)Nc1cccc(Oc2nc(Nc3ccc(N4CCN(C)CC4)cc3)ncc2OC)c1", "≤ 200 nM"),
    ("C=CC(=O)Nc1cccc(Oc2nc(Nc3ccc(N4CCN(C)CC4)c(F)c3)ncc2OC)c1", "200 to 400 nM"),
    ("C=CC(=O)Nc1cccc(Oc2nc(Nc3ccc(N4CCN(CCOC)CC4)cc3)ncc2OC)c1 [Compound I-25a]", "≥ 400 nM"),
]

----------
Collected IC50 values appear next to each entry.
Test system: Stat5 phosphorylation in NK-92 cells
Assay: Western blotting assay for Stat5
Assay type: cell-based
Conditions: NK92, 1 hour, IL-2 stimulation, read-out: Stat5 inhibition
Protocol: All cell lines were obtained from the American Type Culture Collection and were maintained at 37° C. with 5% CO2. Ramos cell line was maintained in media supplemented with 10% fetal bovine serum, penicillin (100 units/mL) and streptomycin (100 μg/mL). NK-92 cell line was maintained in media supplemented with 10% fetal bovine serum and 10% horse serum, penicillin (100 units/mL) and streptomycin (100 μg/mL), IL-2 10 ng/mL. Goat F(ab′)2 Anti-Human IgM-UNLB was obtained from SouthernBiotech. […]
parameter: IC50

# compound, system.tested, reported
measured = [
    ("C=CC(=O)Nc1cccc(Oc2nc(Nc3ccc(N(C)CCOC)nc3)nc3[nH]ccc23)c1 [Compound I-46a]", "Stat5 phosphorylation in NK-92 cells", "≥ 400 nM"),
    ("C=CC(=O)Nc1cccc(Nc2nc(Nc3ccc(N[C@@H]4CCN(CCF)C4)cc3)ncc2OC)c1", "Stat5 phosphorylation in NK-92 cells", "≥ 400 nM"),
    ("C=CC(=O)Nc1cccc(Nc2nc(Nc3ccc(N4CCN(CCF)CC4)cc3)ncc2OC)c1", "Stat5 phosphorylation in NK-92 cells", "200 to 400 nM"),
    ("C=CC(=O)Nc1cccc(Oc2nc(Nc3ccc(N4CCN(CCF)CC4)c(F)c3)ncc2OC)c1", "Stat5 phosphorylation in NK-92 cells", "200 to 400 nM"),
    ("C=CC(=O)Nc1cccc(Nc2nc(Nc3ccc(N[C@H]4CCN(CCF)C4)cc3)ncc2F)c1", "Stat5 phosphorylation in NK-92 cells", "≥ 400 nM"),
    ("C=CC(=O)Nc1cccc(Oc2nc(Nc3ccc(N(CCC)CCOC)cc3)ncc2OC)c1 [Compound I-38a]", "Stat5 phosphorylation in NK-92 cells", "≥ 400 nM"),
    ("C=CC(=O)Nc1cccc(Oc2nc(Nc3cc(F)c(OCCOC)c(F)c3)nc3[nH]ccc23)c1 [Compound I-37a]", "Stat5 phosphorylation in NK-92 cells", "≥ 400 nM"),
    ("C=CCN(CCOC)c1ccc(Nc2ncc(OC)c(Oc3cccc(NC(=O)C=C)c3)n2)cc1 [Compound I-39a]", "Stat5 phosphorylation in NK-92 cells", "≥ 400 nM"),
]

----------
biological target: Btk (Tyr223) phosphorylation in Ramos cells (Homo sapiens); construct: endogenous in cells; host or cells: Ramos cells (ATCC); assay: Btk Tyr223 phosphorylation inhibition, western blotting assay (Example 72); type: cell-based; settings: Btk Tyr223 phosphorylation, 45 min, 12 μg/mL IgM, read-out: BTK Inhibition
Sequence (Q06187 whole entry): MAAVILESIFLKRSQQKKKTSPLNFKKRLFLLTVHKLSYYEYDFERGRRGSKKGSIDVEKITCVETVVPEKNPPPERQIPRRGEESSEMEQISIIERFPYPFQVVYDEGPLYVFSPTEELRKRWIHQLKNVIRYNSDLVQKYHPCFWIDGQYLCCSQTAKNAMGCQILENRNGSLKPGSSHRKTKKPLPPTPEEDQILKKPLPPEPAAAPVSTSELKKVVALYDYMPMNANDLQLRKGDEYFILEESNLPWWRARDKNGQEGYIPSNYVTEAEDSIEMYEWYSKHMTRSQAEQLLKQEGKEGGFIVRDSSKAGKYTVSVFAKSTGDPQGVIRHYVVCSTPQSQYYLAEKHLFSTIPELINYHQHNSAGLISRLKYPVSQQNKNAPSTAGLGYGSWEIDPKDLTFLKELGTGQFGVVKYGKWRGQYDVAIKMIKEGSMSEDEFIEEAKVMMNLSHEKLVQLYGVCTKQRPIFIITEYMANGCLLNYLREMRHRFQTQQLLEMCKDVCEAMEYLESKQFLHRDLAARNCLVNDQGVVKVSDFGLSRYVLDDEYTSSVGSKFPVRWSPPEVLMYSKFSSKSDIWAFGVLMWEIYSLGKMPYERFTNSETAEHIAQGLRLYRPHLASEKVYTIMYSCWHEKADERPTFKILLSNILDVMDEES

# compound, IC50
data = [
    ("C=CC(=O)Nc1cccc(Oc2nc(Nc3ccc(N4CCN(C)CC4)c(F)c3)ncc2OC)c1", "< 10 nM"),
    ("C=CC(=O)Nc1cccc(Nc2nc(Nc3ccc(N[C@@H]4CCN(CCF)C4)cc3)ncc2OC)c1", "< 10 nM"),
    ("C=CC(=O)Nc1cccc(Oc2nc(Nc3ccc(N4CCN(CCF)CC4)cc3)ncc2OC)c1", "< 10 nM"),
    ("C=CC(=O)Nc1cccc(Oc2nc(Nc3ccc(N4CCN(C)CC4)cc3)ncc2OC)c1", "< 10 nM"),
    ("C=CC(=O)Nc1cccc(Nc2nc(Nc3ccc(OCCOC)cc3)nc3[nH]ccc23)c1", "10 to 100 nM"),
    ("C=CC(=O)Nc1cccc(Nc2nc(Nc3ccc(N[C@H]4CCN(CCF)C4)cc3)ncc2OC)c1", "< 10 nM"),
    ("C=CC(=O)Nc1cccc(Oc2nc(Nc3ccc(N4CCN(CCF)CC4)c(F)c3)ncc2OC)c1", "< 10 nM"),
    ("C=CC(=O)Nc1cccc(Oc2nc(Nc3ccc(N[C@@H]4CCN(CCF)C4)cc3)ncc2OC)c1", "10 to 100 nM"),
    ("C=CC(=O)Nc1cccc(Oc2nc(Nc3ccc(N[C@H]4CCN(CCF)C4)cc3)ncc2OC)c1", "< 10 nM"),
]
